biological target: SUV39H2 (Homo sapiens (Human)); experiment: biochemical; assay type: biochemical; settings: 3H-SAM 100 nM, H3 Histone Peptide 350 nM, room temperature 3 hours
Sequence (Q9H5I1 whole entry): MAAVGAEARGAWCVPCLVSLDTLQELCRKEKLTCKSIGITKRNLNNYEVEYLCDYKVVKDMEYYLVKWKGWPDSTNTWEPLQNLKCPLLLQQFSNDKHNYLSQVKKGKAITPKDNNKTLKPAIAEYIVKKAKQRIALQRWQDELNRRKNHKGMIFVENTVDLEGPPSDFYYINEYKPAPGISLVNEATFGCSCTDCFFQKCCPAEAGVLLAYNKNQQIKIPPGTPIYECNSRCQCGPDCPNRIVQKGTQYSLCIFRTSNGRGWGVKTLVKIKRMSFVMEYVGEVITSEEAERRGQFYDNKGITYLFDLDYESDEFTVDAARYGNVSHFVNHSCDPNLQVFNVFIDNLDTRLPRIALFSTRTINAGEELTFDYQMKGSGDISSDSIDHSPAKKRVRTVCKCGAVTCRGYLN
Counter-ions that a name gives are not always drawn.
Each entry below carries its recorded IC50.
measure: IC50 (nM)

compound: COc1cc(OC)c(-c2cn3cnc(N4CC[C@H](NC(=O)OC(C)(C)C)C4)cc3n2)cc1Cl
observed-value: 33.2
//
compound: COc1cc(OC)c(-c2cn3ccc(N[C@H]4CC[C@H](Nc5ncccn5)CC4)cc3n2)cc1Cl [Example 318, hydrochloride]
observed-value: 9.73
//
compound: COc1cc(OC)c(-c2cn3cc(Br)c(N4CC[C@H](NCc5ccncc5)C4)cc3n2)cc1Cl
observed-value: 23.1
//
compound: COc1cc(OC)c(-c2cn3ccc(N4CCN(c5ncc(N6CCN(C)CC6)cn5)CC4)cc3n2)cc1Cl
observed-value: 13.7
//
compound: COc1cc(OC)c(-c2cn3ccc(N4CCN(Cc5ccncc5F)CC4)cc3n2)cc1Cl
observed-value: 16.1
//
compound: COc1cc(OC)c(-c2cn3ccc(N4CCN(c5ccnc(NCCCO)n5)CC4)cc3n2)cc1Cl
observed-value: 14
//
compound: COc1cc(OC(F)F)c(-c2cn3ccc(N4CC[C@H](NC(=O)OC(C)(C)C)C4)cc3n2)cc1Cl
observed-value: 12.7
//
compound: COc1cc(OC)c(-c2cn3ccc(N4CCN(c5nc(N)nc(N6CCCC6)n5)CC4)cc3n2)cc1Cl
observed-value: 88.4
//
compound: COc1cc(OC)c(-c2cn3ccc(N4CCN(c5nccc(N6CCN(C(C)=O)CC6)n5)CC4)cc3n2)cc1Cl [Example 373, 2,2,2-trifluoroacetate]
observed-value: 13.6
//
compound: COc1cc(OC)c(-c2cn3ccc(N4CCN(C(C)=O)CC4C)cc3n2)cc1Cl (stereo not drawn)
observed-value: 3.5
//
compound: COc1cc(OC)c(-c2cn3ccc(N4CCN(c5cnc(N6CCN(C)CC6)nc5)CC4)cc3n2)cc1Cl
observed-value: 17.1
//
compound: COc1cc(OC)c(-c2cn3ccc(N[C@H]4C[C@H]5CC[C@@H](C4)N5Cc4ccccc4)cc3n2)cc1Cl
observed-value: 57.6
//
compound: CNc1ncnc(N2CCN(c3ccn4cc(-c5cc(Cl)c(OC)cc5OC)nc4c3)CC2)n1
observed-value: 17
//
compound: COc1cc(OCCCN(C)C)c(-c2cn3ccc(N4CC[C@H](N)C4)cc3n2)cc1Cl
observed-value: 31.8
//
compound: COc1cc(OC)c(-c2cn3ccc(N[C@H]4CC[C@H](Nc5cncnc5)CC4)cc3n2)cc1Cl
observed-value: 79.9

====

We begin with a simple list: items and their reported IC50.
tested on: PC14; test: Cell-based assay, anti-proliferative activity (Cell Counting Kit-8, 72 hours); settings: Homo sapiens, PC-14; PC14 cells, 72 hours, Cell Counting Kit-8; read-out: IC50 (μM) PC14
measure: IC50 (µM)

input-smiles: COc1cc(OC)c(-c2cn3ccc(N4CCN(C(=O)C5CC5)CC4)cc3n2)cc1Cl
measure: IC50
observed-value: 1.6
--
input-smiles: COc1cc(OC)c(-c2cn3ccc(N4CCN(c5cnccn5)CC4)cc3n2)cc1Cl
measure: IC50
observed-value: 0.7
--
input-smiles: COc1cc(OC)c(-c2cn3ccc(N4CCN(c5ncccc5C#N)CC4)cc3n2)cc1Cl
measure: IC50
observed-value: 0.68
--
input-smiles: COc1cc(OC)c(-c2cn3ccc(-c4ccc(C(=O)NC5CCNCC5)cc4)cc3n2)cc1Cl
measure: IC50
observed-value: 3
--
input-smiles: CCOP(=O)(CCN1CCCN(c2ccn3cc(-c4cc(Cl)c(OC)cc4OCCCN(C)C)nc3c2)CC1)OCC
measure: IC50
observed-value: 10
--
input-smiles: COc1cc(OCCN)c(-c2cn3ccc(N4CCN(S(=O)(=O)C5CC5)CC4)cc3n2)cc1Cl
measure: IC50
observed-value: 6.4
--
input-smiles: CC[C@@H](C)[C@H](N)C(=O)Nc1ccn2cc(-c3cc(Cl)c(OC)cc3OC)nc2c1
measure: IC50
observed-value: 5.7
--
input-smiles: COc1cc(OC)c(-c2cn3ccc(NC(=O)[C@@H]4CCCN4)cc3n2)cc1Cl
measure: IC50
observed-value: 5.2
